Cited source: patent EP0554004A2

Tested on: M. luteus ATCC 9341
Experiment: MIC against standard strains (Test Example 3)
Type: cell-based
Settings: Micrococcus luteus, ATCC9341; M. luteus ATCC 9341 (Test Example 3); read-out: MIC
Experimental: By using each test strain cultured overnight at 37°C in a Muller-Hinton broth, there was prepared a bacterial solution with a bacterial cell population of 1 x 10^6 CFU/mi of the same bouillon. […] The minimum growth inhibitory concentration was determined for each of the 21 standard strains shown in Table 3, according to the same method as used in Test Example 1. […]
One threshold, 0.1 µg/mL, splits the recorded MIC values: lower ones are T, equal or higher ones are F.

Recorded results for 6 compounds are shown here.
INSERT INTO assay_data (compound, system_name, label_value) VALUES
  ('Nc1nc(/C(=N/O)C(=O)N[C@@H]2C(=O)N3C(C(=O)[O-])=C(C[n+]4cccc(-c5csc(N)n5)c4)CS[C@H]23)cs1', 'M. luteus ATCC 9341', 'T'),
  ('Cc1nc(-c2cc[n+](CC3=C(C(=O)[O-])N4C(=O)[C@@H](NC(=O)/C(=N\O)c5csc(N)n5)[C@H]4SC3)cc2)cs1', 'M. luteus ATCC 9341', 'T'),
  ('CNc1nc(-c2cc[n+](CC3=C(C(=O)[O-])N4C(=O)[C@@H](NC(=O)/C(=N\O)c5csc(N)n5)[C@H]4SC3)cc2)cs1', 'M. luteus ATCC 9341', 'T'),
  ('CCN(CC)C(=O)c1ccc[n+](CC2=C(C(=O)[O-])N3C(=O)[C@@H](NC(=O)/C(=N\O)c4csc(N)n4)[C@H]3SC2)c1', 'M. luteus ATCC 9341', 'F'),
  ('Cc1nc(-c2ccc[n+](CC3=C(C(=O)[O-])N4C(=O)[C@@H](NC(=O)/C(=N\O)c5csc(N)n5)[C@H]4SC3)c2)cs1', 'M. luteus ATCC 9341', 'T'),
  ('CO[C@@]1(NC(=O)CSC(F)F)C(=O)N2C(C(=O)O)=C(CSc3nnnn3CCO)CO[C@@H]21 [FMOX, flomoxef, reference compound]', 'M. luteus ATCC 9341', 'T');

For this compound, is MIC lower than 0.1 µg/mL? Cc1nnc(SCC2=C(C(=O)O)N3C(=O)[C@@H](NC(=O)Cn4cnnn4)[C@H]3SC2)s1 [CEZ, cefazolin, reference compound]
F

For this compound, is MIC lower than 0.1 µg/mL? CN(C)CCn1nnnc1SCC1=C(C(=O)O)N2C(=O)[C@@H](NC(=O)Cc3csc(N)n3)[C@H]2SC1 [CTM, cefotiam, reference compound]
F
